- assay comment: label from the status in PepcDB records
endpoint label: protein production

[
  {
    "construct sequence": "MDNMAIADRRRLRRKLTFWRVAAVLLLVVGAFGLYRFFWQGPQQSAKPHIARIEVSGLITDNTELLERLDKIAKSDNVKGLIVSISSPGGTTYGGERIFKVIRSVAEKKPVVSDVRTLAASAGYMIASAGDVIVAGETSITGSIGVIFQYPQLGQLMEKLGVSLQEIKSSPMKAEPSPFHEAPEEAKTMIRAMVMDSYGWFVDLVADRRKLPREEVLKLADGSIFTGRQALANKLVDTLGGEKEVRAYFETRGVAKDLPIVEWRAPSSNSPFALFSVAQIAKLLGYDDLIPFAGPSQLGADKLFLDGLVSVWQVEPRLEHHHHHH",
    "protein production": "not failed"
  },
  {
    "construct sequence": "YESIDLKAVLFDMDGVLFDSMPNHAESWHKIMKRFGFGLSREEAYMHEGRTGASTINIVSRRERGHDATEEEIKAIYQAKTEEFNKCPKAERMPGALEVLTKIKSEGLTPMVVTGSGQTSLLDRLNHNFPGIFQANLMVTAFDVKYGKPNPEPYLMALKKGGFKPNEALVIENAPLGVQAGVAAGIFTIAVNTGPLHDNVLLNEGANLLFHSMPDFNKNWETLQSALKQ",
    "protein production": "failed"
  },
  {
    "construct sequence": "MDLWDRFCVNLHTRKITLEDESQKRSMDLRLLHGVAYGHSWFGKWGYRFCSGSFGVEEHHYHRAIAFLTSISLVDDITANFRENKANLNIGDIVRCYRDMSEIQLTTLQDLLRFMLTIKSRAPPIRIPIGKIEAPSVVLPSMKAYGTRACPQVKQCPKDKEKSVKCRKFALPLPLQACFHFPFRSSMTLLSGSFRS",
    "protein production": "not failed"
  },
  {
    "construct sequence": "MNKTLIINAHPKVDDTSSVSIKVFKHFLESYKELISNNETIEQINLYDDVVPMIDKTVLSAWEKQGNGQELTREEQKVTERMSEILQQFKSANTYVIVLPLHNFNIPSKLKDYMDNIMIARETFKYTETGSVGLLKDGRRMLVIQASGGIYTNDDWYTDVEYSHKYLKAMFNFLGIEDYQIVRAQGTAVLDPTEVLQNAYKEVEEAASRLANKYIFSLEE",
    "protein production": "not failed"
  },
  {
    "construct sequence": "MKSYVLGEFGAEAALLDAARTLRARGGATLDLHSPYPLHGAEEALGLRKSTVPLVALVAGITGAVSGYLLQWYTVGYAWPLNVGNRPPHSAPAFIPVTFELGVLFSALAIFVGLLAVYFGFPRVHHPVFEVEAFRSASIDGLWLSAEVEAGDADAVAAELRRLGARLVSVVPEGK",
    "protein production": "failed"
  }
]

The reported protein production of the sequence MVERTAVFPAGRHSLYAEHRYSAAIRSGDLLFVSGQVGSREDGTPEPDFQQQVRLAFDNLHATLAAAGCTFDDIIDVTSFHTDPENQFEDIMTVKNEIFSAPPYPNWTAVGVTWLAGFDFEIKVIARIPEQ was not failed

Item: MSQLLKLKSQYDDECTVTRHYEGKGRNAGRLGAVGCKNRHGEFRIGSGFKDKDRDNPPKIGTLITYRYRGFTRKGTPKFATFVRVRTLEHHHHHH | protein production: failed
